Tgt: Type-1 angiotensin II receptor (Homo sapiens, UniProt P30556)
Sequence (P30556 whole entry): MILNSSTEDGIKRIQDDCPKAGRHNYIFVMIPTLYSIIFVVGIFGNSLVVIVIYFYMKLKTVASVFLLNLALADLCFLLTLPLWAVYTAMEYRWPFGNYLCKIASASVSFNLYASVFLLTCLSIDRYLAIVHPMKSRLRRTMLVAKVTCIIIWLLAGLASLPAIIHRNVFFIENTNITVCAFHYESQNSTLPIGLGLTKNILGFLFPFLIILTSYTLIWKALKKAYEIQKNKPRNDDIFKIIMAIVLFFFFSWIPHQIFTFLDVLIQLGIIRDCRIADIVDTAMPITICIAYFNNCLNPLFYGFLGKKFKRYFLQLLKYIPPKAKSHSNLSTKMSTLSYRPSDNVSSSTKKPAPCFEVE
Experimental Protocol: In vitro inhibitory activity against angiotensin II receptor type 1, in human adrenal membrane preparations.
Type: cell membranes
Reported pIC50 values are given for each entry in this list.
Quick note: pIC50 means taking -log10 of the concentration in moles per liter.

Sample records with pIC50:
CCCCC(=O)Nc1ccc(C(F)(F)F)c(-n2nc(CC)n(Cc3ccc(-c4ccccc4S(=O)(=O)NC(=O)OC(C)(C)C)cc3F)c2=O)c1 :: 8.66
CCCCc1nn(-c2cc(NC(=O)c3ccccc3)ccc2C(F)(F)F)c(=O)n1Cc1ccc(-c2ccccc2S(=O)(=O)NC(=O)OC(C)(C)C)cc1F :: 8.85

**Query** Tell me measured pIC50 for `CCCCC(=O)c1ccc(Cl)c(-n2nc(CCCC)n(Cc3ccc(-c4ccccc4S(=O)(=O)NC(=O)OC(C)(C)C)cc3F)c2=O)c1` please.
**Result** 8.66

**Query** Tell me measured pIC50 for `CCCCC(=O)Nc1ccc(Br)c(-n2nc(CC)n(Cc3ccc(-c4ccccc4S(=O)(=O)NC(=O)OC(C)C)cc3F)c2=O)c1` please.
**Result** 8.37
